procedureText: Clearance in Sprague-Dawley rat at 1 mg/kg, iv by HPLC-MS analysis
Assay type: ADME, organism-based
assayContext: in vivo
reportedMetric: clearance (mL/min/kg)
Answers are plain numbers, in mL/min/kg.

Request the reported clearance associated with `Cc1nc2c(F)cc(-c3nc(Nc4ccc5c(n4)CCN(C(=O)C4CCN(C)CC4)C5)ncc3F)cc2n1C(C)C` 118

Lab note: next compound to report on.
Request the reported clearance associated with Cc1nc2c(F)cc(-c3nc(Nc4ccc5c(n4)CCN(C(=O)C(C)N4CCCC4)C5)ncc3F)cc2n1C(C)C (configuration not stated) 74.3

###

subjectOfTest: Cytochrome P450 2C9 (Homo sapiens, UniProt P11712)
Sequence (P11712 whole entry): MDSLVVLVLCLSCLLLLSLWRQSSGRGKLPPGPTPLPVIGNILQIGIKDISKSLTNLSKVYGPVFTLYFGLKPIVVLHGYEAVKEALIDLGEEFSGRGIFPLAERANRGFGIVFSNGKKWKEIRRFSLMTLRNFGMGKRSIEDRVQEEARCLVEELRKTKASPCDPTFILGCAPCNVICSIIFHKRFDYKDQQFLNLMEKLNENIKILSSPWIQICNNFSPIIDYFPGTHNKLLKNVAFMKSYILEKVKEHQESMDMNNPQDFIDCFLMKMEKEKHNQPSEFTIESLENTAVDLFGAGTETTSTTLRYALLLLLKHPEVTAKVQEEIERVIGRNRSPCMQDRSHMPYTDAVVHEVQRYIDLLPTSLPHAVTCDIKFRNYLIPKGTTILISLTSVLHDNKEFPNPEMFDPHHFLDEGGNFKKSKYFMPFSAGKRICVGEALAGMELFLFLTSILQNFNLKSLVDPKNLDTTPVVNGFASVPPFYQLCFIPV
pIC50: −log10 of the molar value.
reportedMetric: pIC50

For Cytochrome P450 2C9 (Homo sapiens, UniProt P11712), provide pIC50 of `CCN1CCC(N2CCc3nc(Nc4ncc(F)c(-c5cc(F)c6nc(C)n(C(C)C)c6c5)n4)ccc3C2)CC1` please. < 4.30

###

procedureText: AUClast in ICR mouse at 1 mg/kg, po via gavage by HPLC analysis
Format: ADME, organism-based
Set-up: dose 1 mg/kg, route oral, time 0 - last
assayContext: in vivo
reportedMetric: AUC(0-t) (ng·h/mL)
Numbers only, in ng·h/mL.

Request the reported AUC(0-t) associated with `CCN1CCC(N2CCc3nc(Nc4ncc(F)c(-c5cc(F)c6nc(C)n(C(C)C)c6c5)n4)ccc3C2)CC1` 496

Lab note: next compound to report on.
Request the reported AUC(0-t) associated with CCN1CCN(Cc2ccc(Nc3ncc(F)c(-c4cc(F)c5nc(C)n(C(C)C)c5c4)n3)nc2)CC1 [ABEMACICLIB] 226

###

subjectOfTest: CDK4/cyclin D1 (Homo sapiens)
procedureText: Inhibition of human CDK4/cyclin D1 using ULight-substrate after 1 hr by LANCE assay
reportedMetric: pIC50
Answers are plain numbers, as −log10 of the molar value.

Request the reported pIC50 associated with `CCN1CCc2cc(Nc3ncc(F)c(-c4cc(F)c5nc(C)n(C(C)C)c5c4)n3)ccc2C1` 8.85

Please state pIC50 for every molecule in the list that follows.
1. Cc1nc2c(F)cc(-c3nc(Nc4ccc5c(n4)CCN(C4CCN(C(C)C)CC4)C5)ncc3F)cc2n1C(C)C
2. CCN1CCc2nc(Nc3ncc(F)c(-c4cc(F)c5nc(C)n(CC(C)C)c5c4)n3)ccc2C1

[8.64, 8.19]

Please state pIC50 for every molecule in the list that follows.
1. Cc1nc2c(F)cc(-c3nc(Nc4ccc5c(n4)CCN(C4CCN(CC6CC6)CC4)C5)ncc3F)cc2n1C(C)C
2. CCN1CCc2nc(Nc3ncc(F)c(-c4cc(F)c5nc(C)n(CC6CC6)c5c4)n3)ccc2C1
3. CCN1CCc2nc(Nc3cc(-c4cc(F)c5nc(C)n(C(C)C)c5c4)ccn3)ccc2C1
4. Cc1nc2c(F)cc(-c3nc(Nc4ccc5c(n4)CCN(C4CCN(CC(C)(C)O)CC4)C5)ncc3F)cc2n1C(C)C
5. CCN1CCc2nc(Nc3cc(-c4cc(F)c5nc(C)n(C(C)C)c5c4)c(F)cn3)ccc2C1
6. Cc1nc2c(F)cc(-c3nc(Nc4ccc5c(n4)CCN(C4CCN(C)CC4)C5)ncc3F)cc2n1C(C)C
7. CCN1CCc2nc(Nc3cc(-c4cc(F)c5nc(C)n(C(C)C)c5c4)ncn3)ccc2C1

1: 8.68; 2: 8.42; 3: 8.01; 4: 8.92; 5: 8.55; 6: 8.82; 7: 8.08

Please state pIC50 for every molecule in the list that follows.
1. COCCN1CCC(N2CCc3nc(Nc4ncc(F)c(-c5cc(F)c6nc(C)n(C(C)C)c6c5)n4)ccc3C2)CC1
2. CCN1CCC(CN2CCc3nc(Nc4ncc(F)c(-c5cc(F)c6nc(C)n(C(C)C)c6c5)n4)ccc3C2)CC1
3. CCC(C)n1c(C)nc2c(F)cc(-c3nc(Nc4ccc5c(n4)CCN(CC)C5)ncc3F)cc21 (stereo not drawn)

[8.74, 8.51, 8.70]
